For each entry below, report its pIC50 value.
Tested System: Glutamate receptor 1 (Rattus norvegicus)
Experimental Protocol: In vitro inhibitory activity against Ionotropic glutamate receptor AMPA 1 of HEK293 cells in FLIPR assay
pIC50: −log10 of the molar value.

O=C(Nc1ccc2ccccc2c1)Nc1cc(Cl)ccc1C(=O)O yielded pIC50 of < 4.00

O=C(Nc1cccc(Br)c1)Nc1cc(Cl)ccc1C(=O)O yielded pIC50 of < 4.00

----------
For each entry below, report its IC50 value.
Tested System: Glutamate receptor ionotropic, kainate 1 (Homo sapiens, UniProt P39086)
Sequence (P39086 whole entry): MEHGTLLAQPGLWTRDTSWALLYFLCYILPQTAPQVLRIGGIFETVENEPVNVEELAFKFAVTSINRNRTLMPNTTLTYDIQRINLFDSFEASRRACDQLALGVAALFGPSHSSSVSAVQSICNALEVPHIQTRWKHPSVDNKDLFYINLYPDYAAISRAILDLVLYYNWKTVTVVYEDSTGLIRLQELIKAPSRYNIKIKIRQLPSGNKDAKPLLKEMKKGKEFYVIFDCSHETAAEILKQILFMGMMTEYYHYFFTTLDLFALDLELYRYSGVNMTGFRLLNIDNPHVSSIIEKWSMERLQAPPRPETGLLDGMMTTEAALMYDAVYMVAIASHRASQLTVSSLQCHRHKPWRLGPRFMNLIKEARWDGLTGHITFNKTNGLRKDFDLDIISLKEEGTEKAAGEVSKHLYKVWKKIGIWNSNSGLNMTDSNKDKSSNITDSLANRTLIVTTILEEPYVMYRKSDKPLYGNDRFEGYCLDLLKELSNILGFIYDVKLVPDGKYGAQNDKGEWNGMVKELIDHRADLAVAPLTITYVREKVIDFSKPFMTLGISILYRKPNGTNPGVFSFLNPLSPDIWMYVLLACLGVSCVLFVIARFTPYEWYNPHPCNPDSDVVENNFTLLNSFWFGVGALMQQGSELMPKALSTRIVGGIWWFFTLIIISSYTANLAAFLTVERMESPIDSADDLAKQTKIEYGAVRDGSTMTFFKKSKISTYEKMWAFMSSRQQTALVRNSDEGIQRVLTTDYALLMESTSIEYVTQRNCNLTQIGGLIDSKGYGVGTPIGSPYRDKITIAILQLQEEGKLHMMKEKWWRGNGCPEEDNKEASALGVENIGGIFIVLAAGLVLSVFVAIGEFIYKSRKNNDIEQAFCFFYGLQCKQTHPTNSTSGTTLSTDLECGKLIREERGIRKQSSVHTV
Experimental Protocol: In vitro inhibitory activity against human ionotropic glutamate receptor ionotropic kainate 1 (GluR-5) expressed in HEK293 cells.
Assay type: cell-based

O=C(Nc1ccccc1)Nc1cc(Cl)ccc1C(=O)O yielded IC50 of 10 µM

Cc1ccc(NC(=O)Nc2cccc(C(F)(F)F)c2)c(C(=O)O)c1 yielded IC50 of > 100 µM

O=C(Nc1ccc(C(F)(F)F)cc1)Nc1cc(Cl)ccc1C(=O)O yielded IC50 of 4.8 µM

COc1cccc(NC(=O)Nc2cc(Cl)ccc2C(=O)O)c1 yielded IC50 of 3.7 µM

O=C(Nc1cccc(C(F)(F)F)c1)Nc1cc(Br)ccc1C(=O)O yielded IC50 of 6.1 µM

O=C(Nc1ccccc1I)Nc1cc(Cl)ccc1C(=O)O yielded IC50 of 5 µM

O=C(Nc1cccc(C(F)(F)F)c1)Nc1cc(F)ccc1C(=O)O yielded IC50 of 10 µM

O=C(Nc1cccc(F)c1)Nc1cc(Cl)ccc1C(=O)O yielded IC50 of 7.6 µM

O=C(Nc1ccccc1)Nc1ccccc1C(=O)O yielded IC50 of > 100 µM

O=C(Nc1ccccc1Cl)Nc1cc(Cl)ccc1C(=O)O yielded IC50 of 4.7 µM

O=C(Nc1ccc(I)cc1)Nc1cc(Cl)ccc1C(=O)O yielded IC50 of 4.7 µM

O=C(Nc1cc(Cl)ccc1C(=O)O)Nc1ccccc1C(F)(F)F yielded IC50 of 4.5 µM

----------
Tested System: UniProt:Q13002
Sequence (Q13002 whole entry): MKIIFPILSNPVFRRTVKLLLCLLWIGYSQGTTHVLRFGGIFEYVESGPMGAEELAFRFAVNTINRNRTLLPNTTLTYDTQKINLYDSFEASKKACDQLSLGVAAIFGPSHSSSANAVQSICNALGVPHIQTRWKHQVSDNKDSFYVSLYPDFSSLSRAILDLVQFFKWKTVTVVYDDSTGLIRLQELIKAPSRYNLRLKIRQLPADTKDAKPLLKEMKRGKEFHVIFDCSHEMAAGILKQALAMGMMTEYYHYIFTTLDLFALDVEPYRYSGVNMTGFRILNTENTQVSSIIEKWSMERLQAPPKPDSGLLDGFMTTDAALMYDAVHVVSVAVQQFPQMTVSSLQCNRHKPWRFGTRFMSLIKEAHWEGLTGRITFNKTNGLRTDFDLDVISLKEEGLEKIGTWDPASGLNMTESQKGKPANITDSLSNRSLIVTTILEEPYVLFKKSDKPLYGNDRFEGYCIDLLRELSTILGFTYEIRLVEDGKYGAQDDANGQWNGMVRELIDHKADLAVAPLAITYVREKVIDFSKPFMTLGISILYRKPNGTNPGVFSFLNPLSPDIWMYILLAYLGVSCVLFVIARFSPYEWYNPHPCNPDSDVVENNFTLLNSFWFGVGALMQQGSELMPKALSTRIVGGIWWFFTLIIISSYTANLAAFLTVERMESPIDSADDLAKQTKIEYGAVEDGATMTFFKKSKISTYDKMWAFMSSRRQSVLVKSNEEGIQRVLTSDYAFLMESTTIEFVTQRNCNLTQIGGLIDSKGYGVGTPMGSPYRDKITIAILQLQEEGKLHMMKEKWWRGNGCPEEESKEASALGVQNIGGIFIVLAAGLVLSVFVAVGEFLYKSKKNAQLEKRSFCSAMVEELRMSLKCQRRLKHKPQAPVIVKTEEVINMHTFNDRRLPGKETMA
Experimental Protocol: In vitro inhibitory activity against Ionotropic glutamate receptor ionotropic kainate 2 (GluR-6) of HEK293 cells in FLIPR assay
Measurement Name: pIC50
Just the number, please; pIC50 means minus log10 of the concentration in mol/L.

pIC50 value, target or system UniProt:Q13002, for O=C(Nc1cccc(Br)c1)Nc1cc(Cl)ccc1C(=O)O : 4.55

pIC50 value, target or system UniProt:Q13002, for O=C(Nc1ccc2ccccc2c1)Nc1cc(Cl)ccc1C(=O)O : 4.21

----------
For each entry below, report its pIC50 value.
Tested System: Glutamate receptor ionotropic, kainate 1 (Homo sapiens, UniProt P39086)
Experimental Protocol: Binding inhibition of compound against Ionotropic glutamate receptor ionotropic kainate 1 (GluR5) using [3H]ATPA as radioligand
pIC50: −log10 of the molar value.

O=C(Nc1cccc(Br)c1)Nc1cc(Cl)ccc1C(=O)O yielded pIC50 of < 4.52

O=C(Nc1ccc2ccccc2c1)Nc1cc(Cl)ccc1C(=O)O yielded pIC50 of < 4.52

----------
Tested System: Glutamate receptor 4 (Rattus norvegicus) (UniProt P19493)
Sequence (P19493 whole entry, looked up): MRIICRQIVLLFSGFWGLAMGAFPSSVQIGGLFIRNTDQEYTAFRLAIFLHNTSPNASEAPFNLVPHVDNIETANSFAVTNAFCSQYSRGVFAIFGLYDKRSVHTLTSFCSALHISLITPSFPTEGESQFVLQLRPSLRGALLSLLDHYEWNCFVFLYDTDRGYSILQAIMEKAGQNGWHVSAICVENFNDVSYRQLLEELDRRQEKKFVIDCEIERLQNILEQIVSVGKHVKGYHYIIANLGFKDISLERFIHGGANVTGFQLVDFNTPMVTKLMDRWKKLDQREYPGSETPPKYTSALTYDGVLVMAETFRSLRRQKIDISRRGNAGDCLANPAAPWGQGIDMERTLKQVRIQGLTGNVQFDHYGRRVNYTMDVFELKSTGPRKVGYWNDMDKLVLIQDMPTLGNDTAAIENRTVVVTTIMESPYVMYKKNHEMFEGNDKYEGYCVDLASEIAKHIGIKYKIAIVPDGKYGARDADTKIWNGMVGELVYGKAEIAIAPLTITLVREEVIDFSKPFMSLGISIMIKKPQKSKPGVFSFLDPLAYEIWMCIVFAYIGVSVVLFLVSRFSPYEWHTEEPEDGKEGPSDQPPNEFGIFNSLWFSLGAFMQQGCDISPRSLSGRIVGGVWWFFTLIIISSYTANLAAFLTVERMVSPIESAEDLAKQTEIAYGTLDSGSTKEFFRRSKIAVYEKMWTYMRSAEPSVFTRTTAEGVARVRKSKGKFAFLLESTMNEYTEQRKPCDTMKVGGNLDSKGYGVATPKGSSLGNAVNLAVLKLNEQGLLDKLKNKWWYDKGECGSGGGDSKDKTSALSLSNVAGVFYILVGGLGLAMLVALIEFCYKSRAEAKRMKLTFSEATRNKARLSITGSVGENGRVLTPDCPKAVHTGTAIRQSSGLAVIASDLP
Experimental Protocol: In vitro inhibitory activity against Ionotropic glutamate receptor AMPA 4 of HEK293 cells in FLIPR assay
For each entry below, report its IC50 value.

O=C(Nc1cccc(Br)c1)Nc1cc(Cl)ccc1C(=O)O yielded IC50 of > 100 µM

O=C(Nc1ccc2ccccc2c1)Nc1cc(Cl)ccc1C(=O)O yielded IC50 of > 100 µM

----------
For each entry below, report its IC50 value.
Tested System: Glutamate receptor ionotropic, kainate 1 (Homo sapiens, UniProt P39086)
Experimental Protocol: In vitro inhibitory activity against human ionotropic glutamate receptor ionotropic kainate 1 (GluR-5) expressed in HEK293 cells.
Assay type: cell-based

O=C(Nc1cc(Cl)ccc1C(=O)O)Nc1cccc2ccccc12 yielded IC50 of 9.4 µM

O=C(Nc1ccc2ccccc2c1)Nc1cc(Cl)ccc1C(=O)O yielded IC50 of 1.2 µM

O=C(Nc1cc(Cl)ccc1C(=O)O)Nc1ccccc1-c1ccccc1 yielded IC50 of > 10 µM

Cc1cccc(NC(=O)Nc2cccc(C(F)(F)F)c2)c1C(=O)O yielded IC50 of > 100 µM

Cc1cccc(C(=O)O)c1NC(=O)Nc1cccc(C(F)(F)F)c1 yielded IC50 of > 100 µM

O=C(Nc1ccc(Br)cc1)Nc1cc(Cl)ccc1C(=O)O yielded IC50 of 2.2 µM

O=C(Nc1ccc2cc3ccccc3cc2c1)Nc1cc(Cl)ccc1C(=O)O yielded IC50 of > 30 µM

COc1ccc(NC(=O)Nc2cc(Cl)ccc2C(=O)O)cc1 yielded IC50 of 10 µM

O=C(Nc1ccc2c(c1)OCO2)Nc1cc(Cl)ccc1C(=O)O yielded IC50 of 3.6 µM

O=C(Nc1cc(NC(=O)c2ccccc2)c(C(=O)O)cc1C(=O)O)c1ccccc1 yielded IC50 of 1.6 µM

O=C(Nc1cccc(I)c1)Nc1cc(Cl)ccc1C(=O)O yielded IC50 of 2.2 µM

----------
Tested System: Glutamate receptor ionotropic, kainate 1 (Homo sapiens, UniProt P39086)
Experimental Protocol: In vitro inhibitory activity against human ionotropic glutamate receptor ionotropic kainate 1 (GluR-5) expressed in HEK293 cells.
Type: cell-based
Measurement Name: IC50 (µM)
# value in µM; strip the unit string

O=C(Nc1ccccc1Br)Nc1cc(Cl)ccc1C(=O)O yielded IC50 of 4.5

O=C(Nc1cc2ccccc2[nH]1)Nc1cc(Cl)ccc1C(=O)O yielded IC50 of 1.2

O=C(Nc1cccc(C(F)(F)F)c1)Nc1cc(Cl)ccc1C(=O)O yielded IC50 of 5

O=C(Nc1cccc(Br)c1)Nc1cc(Cl)ccc1C(=O)O yielded IC50 of 4.8

O=C(Nc1ccncc1)Nc1cc(Cl)ccc1C(=O)O yielded IC50 of 88

O=C(Nc1ccc(Cl)cc1)Nc1cc(Cl)ccc1C(=O)O yielded IC50 of 3.1

----------
Tested System: Glutamate receptor 3 (Rattus norvegicus) (UniProt P19492)
Sequence (P19492 whole entry, looked up): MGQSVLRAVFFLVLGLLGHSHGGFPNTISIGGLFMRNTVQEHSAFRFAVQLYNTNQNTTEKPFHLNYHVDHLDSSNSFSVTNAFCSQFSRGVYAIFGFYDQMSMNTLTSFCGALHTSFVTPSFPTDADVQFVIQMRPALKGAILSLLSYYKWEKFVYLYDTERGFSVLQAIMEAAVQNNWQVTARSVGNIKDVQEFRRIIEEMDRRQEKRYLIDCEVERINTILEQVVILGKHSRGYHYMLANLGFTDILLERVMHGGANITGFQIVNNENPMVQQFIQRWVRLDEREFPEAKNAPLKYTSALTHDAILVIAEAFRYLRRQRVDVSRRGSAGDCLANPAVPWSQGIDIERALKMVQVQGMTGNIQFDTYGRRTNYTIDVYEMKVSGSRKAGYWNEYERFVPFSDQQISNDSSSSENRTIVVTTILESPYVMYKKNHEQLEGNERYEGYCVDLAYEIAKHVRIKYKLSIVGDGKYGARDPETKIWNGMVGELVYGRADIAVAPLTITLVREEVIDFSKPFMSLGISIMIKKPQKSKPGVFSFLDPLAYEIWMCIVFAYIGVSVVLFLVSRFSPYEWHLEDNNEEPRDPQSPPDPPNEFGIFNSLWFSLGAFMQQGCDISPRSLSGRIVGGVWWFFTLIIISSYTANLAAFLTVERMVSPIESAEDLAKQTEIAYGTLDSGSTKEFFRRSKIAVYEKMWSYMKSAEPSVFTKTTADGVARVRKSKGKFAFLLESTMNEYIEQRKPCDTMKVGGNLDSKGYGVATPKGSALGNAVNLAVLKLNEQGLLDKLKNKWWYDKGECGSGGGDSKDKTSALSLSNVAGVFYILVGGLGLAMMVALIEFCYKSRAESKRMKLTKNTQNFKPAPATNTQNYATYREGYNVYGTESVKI
Experimental Protocol: In vitro inhibitory activity against Ionotropic glutamate receptor AMPA 3 of HEK293 cells in FLIPR assay
pIC50: −log10 of the molar value.
For each entry below, report its pIC50 value.

O=C(Nc1ccc2ccccc2c1)Nc1cc(Cl)ccc1C(=O)O yielded pIC50 of < 4.00

O=C(Nc1cccc(Br)c1)Nc1cc(Cl)ccc1C(=O)O yielded pIC50 of < 4.00
